Values from ChEMBL document CHEMBL1944616

Parameter: IC50. Scope: all listed entries.
Test system: Plasmodium falciparum
experiment.description: Antimalarial activity against ring stage Plasmodium falciparum 3D7 infected in human erythrocytes after 48 hrs by flow cytometry
Assay type: functional, organism-based
experimental.context: 3D7, 48 h

Here are 2 compounds together with their reported answers.
O=P(O)(O)CCc1cccc2c1B(O)OC2 :: > 5 µM
O=C1NC(=O)C(Cc2cccc3c2B(O)OC3)N1 (stereo not drawn) :: > 5 µM

// next item, IC50 requested
Q) Respond only with IC50 recorded for `CC(=O)Nc1ccc(CCC(=O)O)c2c1COB2O`
A) > 5 µM
